- Tested on: Plasmodium falciparum
- experimental.protocol: Antimalarial activity against chloroquine-resistant Plasmodium falciparum W2 in erythrocytes after 72 hrs by LDH activity
- Type: functional, organism-based
- condition.parameters: W2, 72 h
pIC50 for assorted compounds
// field semantics: pIC50 = negative decimal log of concentration (mol/L)

compound | pIC50
C[C@@H]1CC[C@H]2[C@@H](C)C(=O)O[C@@H]3O[C@@]4(C)CC[C@@H]1[C@]32OO4 [ARTEMISININ] | 7.82

Continue with the compound presented below.
### Prompt Look at this compound and give its reported pIC50. COC(=O)c1ccc(C2OOC(c3ccc(C)cc3)OO2)cc1 (configuration not stated)
### Response 5.22
